Reference source: patent US20250326838A1

Biological target: T1, Siglec15-ECD-His (human, UniProt Q6ZMC9 20-263)
T1 construct: Human Siglec15 (Uniprot Q6ZMC9) extracellular domain with 7 His, expressed in Hek293F; also called Sigle15-ECD-His protein; Siglec15-His protein
T1 sequence: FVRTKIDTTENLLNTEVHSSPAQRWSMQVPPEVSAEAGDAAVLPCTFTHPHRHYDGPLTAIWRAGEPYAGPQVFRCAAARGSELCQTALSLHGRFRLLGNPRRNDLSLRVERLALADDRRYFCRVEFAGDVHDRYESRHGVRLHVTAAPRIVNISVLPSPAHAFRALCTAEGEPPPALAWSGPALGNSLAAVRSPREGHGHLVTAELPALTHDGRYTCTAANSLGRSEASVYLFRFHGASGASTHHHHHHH
Assay: BLI (ForteBio), Siglec15-ECD-His on HIS1K sensor, antibody as analyte
assay-readout: koff
Please answer using a numeric value trailed by its unit.

Task item: State the recorded koff for this entry: 1-7F4-IgG1 human-mouse chimeric anti-Siglec15 antibody (antibody, V domains shown) VH: EVQLQQSGPELVKPGASVKMSCKASGYTFTTYVMHWVKQKPGQGLEWIGYINPYNDKTKYNEKFKGKATLTSDKSSSTAYMEVSRLTSEDSAVYYCGSGYDAMDYWGQGTSVTVSS VL: DIQMTQSPASLSVSVGETVTITCRASENIYSHLAWYQQKQGKSPQLLIYSATNLADGVPSRFNGSGSGTQYSLKINSLQSEDFGSYYCQHFWGTPWTFGGGTKLEIK
Reply: 3.42e-05 s⁻¹
